experimental-target: T1, TAFV GP on VSV pseudotype particles (Tai Forest virus (TAFV), UniProt Q66810 33-676)
T1 sequence: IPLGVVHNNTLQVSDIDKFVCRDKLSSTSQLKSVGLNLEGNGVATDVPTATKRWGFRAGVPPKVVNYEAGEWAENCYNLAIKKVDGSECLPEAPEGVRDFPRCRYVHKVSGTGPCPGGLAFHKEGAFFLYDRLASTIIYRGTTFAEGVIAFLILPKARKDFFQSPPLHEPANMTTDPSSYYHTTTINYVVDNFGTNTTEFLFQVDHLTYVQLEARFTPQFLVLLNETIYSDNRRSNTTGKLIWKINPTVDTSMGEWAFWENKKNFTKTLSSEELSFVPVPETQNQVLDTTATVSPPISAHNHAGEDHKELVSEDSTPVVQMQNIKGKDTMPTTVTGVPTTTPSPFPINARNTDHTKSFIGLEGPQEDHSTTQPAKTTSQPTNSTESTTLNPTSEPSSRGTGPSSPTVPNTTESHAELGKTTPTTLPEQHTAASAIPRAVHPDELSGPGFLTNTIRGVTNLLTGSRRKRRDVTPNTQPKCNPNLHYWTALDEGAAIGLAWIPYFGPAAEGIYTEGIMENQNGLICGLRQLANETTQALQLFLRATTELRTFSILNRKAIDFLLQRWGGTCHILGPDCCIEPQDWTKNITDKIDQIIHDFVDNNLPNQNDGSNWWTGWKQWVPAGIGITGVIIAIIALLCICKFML
test-details: cell-based or functional assay
Task for the reader: assign each of the following binders its reported IC50 (nM), neutralization of rVSV-GP.
Value expressed in nM; do not type the unit.

Request the reported IC50 (nM), neutralization of rVSV-GP associated with PE-87 V102A (antibody, V domains shown) VH: QVQLVQSGVTLVQPGGSLRVSCAASGFTFSSYAMSWVRQAPGKGLEWVSAISGLGGSTYYADSVKGRFTISRDNSKNTLYLQMNSLRAEDTAVYYCAKDHRAWAAGYHFDYWGQGALVTVSS VL: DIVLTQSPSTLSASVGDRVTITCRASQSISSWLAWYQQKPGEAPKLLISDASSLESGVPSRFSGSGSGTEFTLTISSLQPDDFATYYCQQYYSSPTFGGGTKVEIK
1

Request the reported IC50 (nM), neutralization of rVSV-GP associated with PE-87 F109A (antibody, V domains shown) VH: QVQLVQSGVTLVQPGGSLRVSCAASGFTFSSYAMSWVRQAPGKGLEWVSAISGLGGSTYYADSVKGRFTISRDNSKNTLYLQMNSLRAEDTAVYYCAKDHRVWAAGYHADYWGQGALVTVSS VL: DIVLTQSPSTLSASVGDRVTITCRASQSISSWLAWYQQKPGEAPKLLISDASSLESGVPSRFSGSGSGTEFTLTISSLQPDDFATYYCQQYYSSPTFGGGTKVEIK
2.8
